- Test system: Candida albicans
- Protocol Text: Antifungal activity against planktonic form of Candida albicans PMC 1082 by broth microdilution method
- Assay type: organism-based
- Experimental Setup: in vitro
The compounds listed here are annotated with their MIC50.

Consider the reported MIC50 for these compounds:
Compound	Target Or System	MIC50
c1ccc2cc(CNCCc3c[nH]c4ccccc34)ccc2c1	Candida albicans	32 µg/mL
c1ccc(Oc2ccc(CNCCc3c[nH]c4ccccc34)cc2)cc1	Candida albicans	16 µg/mL
Brc1ccc(CNCCc2c[nH]c3ccccc23)cc1	Candida albicans	32 µg/mL
CC(C)Cc1ccc(C(C)C(=O)NCCc2c[nH]c3ccccc23)cc1 (configuration not stated)	Candida albicans	> 256 µg/mL
OC(Cn1cncn1)(Cn1cncn1)c1ccc(F)cc1F	Candida albicans	0.125 µg/mL
O=[N+]([O-])c1ccc(N2CCN(Cc3c[nH]c4ccccc34)CC2)cc1	Candida albicans	> 256 µg/mL

// query Field request: MIC50 | item: c1ccc2c(CCNCc3ccc(CNCCc4c[nH]c5ccccc45)cc3)c[nH]c2c1
// result > 256 µg/mL

###

- System: Candida albicans
- Protocol Text: Antifungal activity against planktonic form of Candida albicans ATCC 10231 by broth microdilution method
- Assay type: organism-based
- Experimental Setup: in vitro
Measured Parameter: MIC50

OC(Cn1cncn1)(Cn1cncn1)c1ccc(F)cc1F 0.5 µg/mL
c1ccc(Oc2ccc(CNCCc3c[nH]c4ccccc34)cc2)cc1 4 µg/mL
c1ccc2c(CCNCc3ccc(CNCCc4c[nH]c5ccccc45)cc3)c[nH]c2c1 > 128 µg/mL

// query Field request: MIC50 | item: CN(C)c1ccc(CNCCc2c[nH]c3ccccc23)cc1
// result > 128 µg/mL

// query Next: O=[N+]([O-])c1cccc(Cl)c1CNCCc1c[nH]c2ccccc12
// result > 128 µg/mL

// query Next: Brc1ccccc1CNCCc1c[nH]c2ccccc12
// result 128 µg/mL

// query Next: O=C(NCCc1c[nH]c2ccccc12)c1ccccn1
// result > 128 µg/mL

// query Next: C(=C\c1ccccc1)/CNCCc1c[nH]c2ccccc12
// result 64 µg/mL

// query Next: Clc1ccc(CNCCc2c[nH]c3ccccc23)cc1
// result 32 µg/mL

// query Next: O=C(NCCc1c[nH]c2ccccc12)c1ccccc1
// result > 128 µg/mL

// query Next: O=[N+]([O-])c1ccc(CNCCc2c[nH]c3ccccc23)o1
// result > 128 µg/mL

// query Next: O=C(NCCc1c[nH]c2ccccc12)c1cccnc1
// result > 128 µg/mL

// query Next: NCCc1c[nH]c2ccccc12
// result > 128 µg/mL

###

The molecules listed here are annotated with their MIC50.
- Test system: Candida albicans
- Protocol Text: Antifungal activity against planktonic form of Candida albicans PMC 1042 by broth microdilution method
- Assay type: organism-based
- Experimental Setup: in vitro
Numeric only. Scale: µg/mL

Consider the reported MIC50 for these molecules:
Molecule	Units Label	Recorded Value
c1ccc(Oc2ccc(CNCCc3c[nH]c4ccccc34)cc2)cc1	µg/mL	64
Brc1ccc(CNCCc2c[nH]c3ccccc23)cc1	µg/mL	16
c1ccc2cc(CNCCc3c[nH]c4ccccc34)ccc2c1	µg/mL	128

Turning now to a further molecule:
// query Field request: MIC50 | item: OC(Cn1cncn1)(Cn1cncn1)c1ccc(F)cc1F [FLUCONAZOLE]
// result 8

###

- Protocol Text: Toxicity in Galleria mellonella larvae assessed as larval survival at 50 ug/ml after 24 hrs relative to control
Measured Parameter: survival at 24 h

// query Field request: survival at 24 h | item: c1ccc2cc(CNCCc3c[nH]c4ccccc34)ccc2c1
// result 90%

// query Next: O=[N+]([O-])c1ccc(N2CCN(Cc3c[nH]c4ccccc34)CC2)cc1
// result 100%

// query Next: c1ccc(Oc2ccc(CNCCc3c[nH]c4ccccc34)cc2)cc1
// result 100%

// query Next: c1ccc2c(CCNCc3ccc(CNCCc4c[nH]c5ccccc45)cc3)c[nH]c2c1
// result 100%

// query Next: Brc1ccc(CNCCc2c[nH]c3ccccc23)cc1
// result 100%

// query Next: CC(C)Cc1ccc(C(C)C(=O)NCCc2c[nH]c3ccccc23)cc1 (configuration not stated)
// result 100%

// query Next: O=[N+]([O-])c1ccccc1CNCCc1c[nH]c2ccccc12
// result 90%

###

- Protocol Text: Toxicity in Galleria mellonella larvae assessed as larval survival at 50 ug/ml after 48 hrs relative to control
The compounds listed here are annotated with their survival at 48 h.
Numeric only. Scale: %

Consider the reported survival at 48 h for these compounds:
Compound	Units Label	survival at 48 h
c1ccc2c(CCNCc3ccc(CNCCc4c[nH]c5ccccc45)cc3)c[nH]c2c1	%	90
Brc1ccc(CNCCc2c[nH]c3ccccc23)cc1	%	100
c1ccc(Oc2ccc(CNCCc3c[nH]c4ccccc34)cc2)cc1	%	100
O=[N+]([O-])c1ccc(N2CCN(Cc3c[nH]c4ccccc34)CC2)cc1	%	100
CC(C)Cc1ccc(C(C)C(=O)NCCc2c[nH]c3ccccc23)cc1 (configuration not stated)	%	100
O=[N+]([O-])c1ccccc1CNCCc1c[nH]c2ccccc12	%	90

// query Field request: survival at 48 h | item: c1ccc2cc(CNCCc3c[nH]c4ccccc34)ccc2c1
// result 90

###

The molecules listed here are annotated with their survival at 72 h.
- Protocol Text: Toxicity in Galleria mellonella larvae assessed as larval survival at 50 ug/ml after 72 hrs relative to control
Numeric only. Scale: %

Consider the reported survival at 72 h for these molecules:
Molecule	Units Label	survival at 72 h
CC(C)Cc1ccc(C(C)C(=O)NCCc2c[nH]c3ccccc23)cc1 (configuration not stated)	%	100
c1ccc2c(CCNCc3ccc(CNCCc4c[nH]c5ccccc45)cc3)c[nH]c2c1	%	90
O=[N+]([O-])c1ccc(N2CCN(Cc3c[nH]c4ccccc34)CC2)cc1	%	100
c1ccc(Oc2ccc(CNCCc3c[nH]c4ccccc34)cc2)cc1	%	100
Brc1ccc(CNCCc2c[nH]c3ccccc23)cc1	%	100
c1ccc2cc(CNCCc3c[nH]c4ccccc34)ccc2c1	%	90

// query Field request: survival at 72 h | item: O=[N+]([O-])c1ccccc1CNCCc1c[nH]c2ccccc12
// result 90

###

- System: Candida albicans
- Protocol Text: Antifungal activity against planktonic form of Candida albicans ATCC 10261 by broth microdilution method
- Type: organism-based
- Experimental Setup: in vitro
Measured Parameter: MIC50 (µg/mL)
Numeric only. Scale: µg/mL

Mol Smiles	MIC50 / µg/mL
Brc1ccc(CNCCc2c[nH]c3ccccc23)cc1	32

// query Query the reported MIC50 for Candida albicans; item: c1ccc(Oc2ccc(CNCCc3c[nH]c4ccccc34)cc2)cc1
// result 16

###

- Protocol Text: Toxicity in Galleria mellonella larvae assessed as larval survival at 1000 ug/ml after 24 hrs relative to control
Measured Parameter: survival at 24 h (%)
Numeric only. Scale: %

// query Field request: survival at 24 h | item: CC(C)Cc1ccc(C(C)C(=O)NCCc2c[nH]c3ccccc23)cc1 (stereo unspecified)
// result 100

###

- Tested on: Candida albicans
- Protocol Text: Antifungal activity against planktonic form of Candida albicans PMC 1042 by broth microdilution method
- Format: organism-based
- Experimental Setup: in vitro
Measured Parameter: MIC50

Consider the reported MIC50 for these compounds:
Compound	MIC50
CC(C)Cc1ccc(C(C)C(=O)NCCc2c[nH]c3ccccc23)cc1 (stereo not drawn)	> 256 µg/mL
O=[N+]([O-])c1ccc(N2CCN(Cc3c[nH]c4ccccc34)CC2)cc1	> 256 µg/mL

// query Field request: MIC50 | item: c1ccc2c(CCNCc3ccc(CNCCc4c[nH]c5ccccc45)cc3)c[nH]c2c1
// result > 256 µg/mL

###

The compounds listed here are annotated with their MIC50.
- System: Candida albicans
- Protocol Text: Antifungal activity against planktonic form of Candida albicans ATCC 10261 by broth microdilution method
- Type: organism-based
- Experimental Setup: in vitro
Numeric only. Scale: µg/mL

Consider the reported MIC50 for these compounds:
Mol Smiles	Units Label	MIC50
OC(Cn1cncn1)(Cn1cncn1)c1ccc(F)cc1F	µg/mL	2
c1ccc2c(CCNCc3ccc(CNCCc4c[nH]c5ccccc45)cc3)c[nH]c2c1	µg/mL	256

// query Query the reported MIC50 for Candida albicans; item: c1ccc2cc(CNCCc3c[nH]c4ccccc34)ccc2c1
// result 32

Value source: ChEMBL document CHEMBL4400512
